These entries and their values trace back to paper PMC8020607.

# system: C5a (recombinant human C5a) (Homo sapiens, UniProt P01031)
# Sequence (P01031 678-751 limits assumed): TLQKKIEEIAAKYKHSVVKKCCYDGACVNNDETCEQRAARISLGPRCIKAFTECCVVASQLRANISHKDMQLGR
# assay info: intrinsic tyrosine fluorescence titration, non-linear fit
# Format: binding
pKd: −log10 of the molar value.
readout type: pKd

**Query** Fill in the blank: the reported pKd of C[C@]12C=CC(=O)C=C1CC[C@@H]1[C@@H]2C(=O)C[C@@]2(C)[C@H]1CC[C@]2(O)C(=O)CO [prednisone] is ____.
**Result** ~6.42
